Target: Metabotropic glutamate receptor 8 (Rattus norvegicus)
Assay: mGluR8 Gi/Go-coupled signaling modulation – cell-based, rat, thallium flux, HTS, primary screen (AID 488969)
Conditions: HEK293 rat mGluR8, GIRK thallium flux, FluoZin2; at 10 µM; stronger effect = higher value; submaximal glutamate (EC20) added with thallium
Over roughly 110,000 compounds, “z-score” has its median near -0.1; the highest 2% begin near 2. The full list was thinned out, with the highest values kept by preference.
Overview of reported z-score across a group of compounds:
Just the number, please, no unit after it.

{"columns": ["compound", "targetOrTestSystem", "z-score"],
 "data": [
  ["CSc1ccccc1NC(=O)COc1ccccc1Cl", "Metabotropic glutamate receptor 8 (Rattus norvegicus)", -1.54],
  ["C#CCn1c(S(=O)(=O)Cc2ccc(C)cc2)nc(-c2ccccc2)c1-c1ccccc1", "Metabotropic glutamate receptor 8 (Rattus norvegicus)", -0.259],
  ["CN(C)S(=O)(=O)c1cccc(NC(=O)Cn2cnc3ccccc3c2=O)c1", "Metabotropic glutamate receptor 8 (Rattus norvegicus)", 0.0344]
]}

Fill in the blank: the reported z-score of O=C(O)C1C2C=CC(C2)C1C(=O)NCCc1cccc(Cl)c1 (stereo not drawn) is ____.
6.03

Entry Cc1ccccc1C(=O)NNC(=O)c1ccc(F)cc1 please
0.0481

Again, but for COc1ccc(NC(=O)C23CC4CC(C2)CC(n2cnc(Br)n2)(C4)C3)cc1Cl
-0.254

Try the compound CCCc1cc(-c2nc(-c3ccc(Br)cc3)cs2)ccn1
0.0465

Then this compound: CCn1c(-c2nn(C)c(C)c2Cl)n[nH]c1=S
-0.461

Moving on to CCn1c2ccccc2c2cc(N)ccc21
-0.216

Now this one: COc1ccccc1C(=O)NNC(=O)c1cccc(F)c1
-0.0578

Also check O=C(NC(=S)N(Cc1ccccc1)Cc1ccccc1)c1ccccc1F
-1.15

Then O=C(CC(=O)c1ccccc1O)c1ccc(F)cc1 ?
7.61

Also check CCOC(=O)c1cnc(SCC(=O)Nc2nnc(CC)s2)nc1N
0.763

Again, but for COc1cc(OC)c(NC(=O)CCNC(=O)Cn2ccc3ccccc3c2=O)cc1Cl
-0.293

Can you handle O=C(NC(=S)N(Cc1ccccc1)Cc1ccccc1)C1CCCCC1 next?
0.526

# iterate: COc1ccc(Cl)c(N2CCN(CCCNC(=O)Nc3ccc(C)cc3)CC2)c1
2.3

Also CC(C)CC(=O)NCCCCc1ccccc1 ?
-0.29

Input CNC(=S)NNC(=O)Cc1ccc(O)cc1
0.306

Check O=C(CCC(=O)OCC(=O)c1ccc(Cl)cc1Cl)Nc1cccc2cccnc12 too.
0.0344

* * *

Molecular target: Metabotropic glutamate receptor 8 (Rattus norvegicus)
Test: mGluR8 Gi/Go-coupled signaling modulation – cell-based, rat, thallium flux, HTS, primary screen (AID 488969)
Details: HEK293 rat mGluR8, GIRK (G protein-gated inwardly rectifying potassium channel) thallium flux, FluoZin2; at 10 µM; stronger effect = higher value; submaximal glutamate (EC20) added with thallium
Over roughly 110,000 compounds, “z-score” has its median near -0.1; the highest 2% begin near 2. Only a selection was taken, and the highest values are over-represented in it overall.
Each record's z-score is compared with class 0 (below -0.3), class 1 (-0.3 to below 2), class 2 (2 or more) to give its class.

Reference set, count: 10
{"columns": ["compound", "assignedCategory"],
 "data": [
  ["CC1(C)Oc2nc3ccccc3n2/C1=C\\C#N", "class 1"],
  ["Cc1ccc(-n2ncc3c(SCc4cccc(C)c4)ncnc32)cc1", "class 2"],
  ["COCC(C)n1c(C)cc(C(=O)COC(=O)c2oc3ccccc3c2C)c1C (centres undefined)", "class 0"],
  ["Cc1ccc(-n2ncc3c(SCc4ccccc4)ncnc32)cc1", "class 2"],
  ["O=C(NCc1cccnc1)c1cccc(C(F)(F)F)c1", "class 0"],
  ["Cc1ccc(CSc2ncnc3c2cnn3-c2ccc(C)cc2)cc1", "class 1"],
  ["Cc1ccc(C(=O)Nc2cnc3ccccn3c2=O)cc1", "class 2"],
  ["COc1ccccc1N(CC(=O)Nc1ccccc1C(=O)NC(C)C)S(C)(=O)=O", "class 0"],
  ["CCc1nc(SCC(=O)N2c3ccccc3CC2C)c2c(C)c(C)sc2n1 (centres undefined)", "class 1"],
  ["Cc1ccc2nc(SCC(=O)N3CCOCC3)[nH]c2c1", "class 1"]
]}

Shifting focus to the compound that follows.
Please indicate the class for Cc1cc(C)cc(NS(=O)(=O)c2ccc3oc(=O)ccc3c2)c1 based on its z-score.
class 2
